Listed next: entries and their corresponding SPOT peptide array binding signal intensity.
- test system: AgMyo5
- test protocol: SPOT peptide array binding signal intensity (averaged, normalized) (arbitrary units (background-subtracted, floor 0; scale differs between SH3 domains)); higher = stronger binding of the SH3 domain to the peptide
readout name: SPOT peptide array binding signal intensity

[[record]]
binder = "KDKSRPPRPPPKPLH"
censoring_qualifier = "≤"
number = 0

[[record]]
binder = "PAPPPPPRASRPTPN"
censoring_qualifier = "≤"
number = 0

[[record]]
binder = "RNNRPVPPPPPMRTT"
censoring_qualifier = "="
number = 72.2

[[record]]
binder = "PPIPNAPLSPAPAVP"
censoring_qualifier = "="
number = 1300

[[record]]
binder = "EREKALPPIPFTTTL"
censoring_qualifier = "≤"
number = 0

[[record]]
binder = "YSRKKLPVVLSKMTL"
censoring_qualifier = "="
number = 3.25

[[record]]
binder = "RTRRRPPPPPIPSTQ"
censoring_qualifier = "="
number = 339


Sourced from the supplement of paper PMC4466140
